System: HBV DNA
Experiment: HBV DNA assay (real-time qPCR of extracellular HBV DNA, HepG2.2.15 cells)
Format: cell-based
Conditions: Hepatitis B virus, 144 h, extracellular HBV DNA in supernatant, six days after treatment, read-out: IC50, anti HBV DNA production activity
readout-type: IC50 (nM)
Kindly provide the numeric value in nM only, without the unit symbol.

Input `COc1cc(F)c2c(c1)CN(c1cnc(-c3ncccn3)cn1)CC2` . Output IC50: 292

----------
System: HBsAg
Assay: HBsAg assay (CLIA on supernatant of HepG2.2.15 cells)
Assay type: cell-based, HBV
Conditions: read-out: IC50 in HBsAg assay; HepG2.2.15 cells; HBsAg secretion reduced by 50% compared to the no drug control
readout-type: pIC50
Please express pIC50 as -log10 of the molar concentration.

pIC50 recorded for this compound, Fc1ccc2c(c1)CN(c1cnc(-c3ncccn3)nc1)CC2 [Example 2] , is 4.65

Looking up Fc1ccc2c(c1)CN(c1cnc(-c3ncccn3)nc1)CC2 [Example 11] , I see its pIC50 listed as 5.41
